Biological target: T1, purified human activated C1s protein, two-chain form (Homo sapiens, UniProt P09871 16-688)
T1 construct: Also used here for C1s acting in human serum assays; also called human C1s; active C1s
T1 sequence: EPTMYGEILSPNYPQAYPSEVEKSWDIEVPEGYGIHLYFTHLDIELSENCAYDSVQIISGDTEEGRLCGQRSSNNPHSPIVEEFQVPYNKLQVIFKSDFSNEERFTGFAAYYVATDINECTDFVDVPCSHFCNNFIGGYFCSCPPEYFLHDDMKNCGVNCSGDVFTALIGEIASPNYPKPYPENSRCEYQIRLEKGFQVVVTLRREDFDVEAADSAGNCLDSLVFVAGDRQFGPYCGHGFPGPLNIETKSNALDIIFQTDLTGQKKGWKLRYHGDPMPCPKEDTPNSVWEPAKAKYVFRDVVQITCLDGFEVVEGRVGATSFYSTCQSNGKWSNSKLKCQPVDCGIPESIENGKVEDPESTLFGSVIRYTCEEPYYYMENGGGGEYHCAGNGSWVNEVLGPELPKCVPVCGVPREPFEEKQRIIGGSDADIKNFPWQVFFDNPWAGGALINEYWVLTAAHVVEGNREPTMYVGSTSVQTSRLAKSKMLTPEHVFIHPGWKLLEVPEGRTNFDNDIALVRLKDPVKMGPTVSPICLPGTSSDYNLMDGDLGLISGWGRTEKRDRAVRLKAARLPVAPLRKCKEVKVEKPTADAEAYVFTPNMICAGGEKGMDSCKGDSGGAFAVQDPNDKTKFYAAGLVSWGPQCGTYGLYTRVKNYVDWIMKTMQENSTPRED
Assay: kinetic binding measurement, method not stated; Table 9, activated C1s
READOUT KIND: kon (M⁻¹ s⁻¹)
Write the number in M⁻¹ s⁻¹ without appending the unit.

Below are worked cases with known answers.
VH4/Vk3 (antibody, V domains shown, member of group m7; also called VH4/Vκ3; VH variant 4 + Vk variant 3) VH: EVQLVESGGGLVKPGGSLRLSCAASGFTFSNYAMSWVRQAPGKGLEWVATISSGGSHTYYLDSVKGRFTISRDNSKNTLYLQMNSLRAEDTALYYCARLFTGYAMDYWGQGTLVTVSS VL: QIVLTQSPATLSLSPGERATLSCTASSSVSSSYLHWYQQKPGKAPKLWIYSTSNLASGVPSRFSGSGSGTDYTLTISSLQPEDFATYYCHQYYRLPPITFGQGTKLEIK	1.04e+06
VH2/Vk2 (antibody, V domains shown, member of group m7; also called VH2/Vκ2; VH variant 2 + Vk variant 2) VH: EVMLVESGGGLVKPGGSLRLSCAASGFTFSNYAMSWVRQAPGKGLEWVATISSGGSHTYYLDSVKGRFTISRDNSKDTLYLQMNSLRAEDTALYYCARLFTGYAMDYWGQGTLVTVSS VL: QIVLTQSPATLSLSPGERATMSCTASSSVSSSYLHWYQQKPGKAPKLWIYSTSNLASGVPSRFSGSGSGTDYTLTISSLQPEDFATYYCHQYYRLPPITFGQGTKLEIK	1.03e+06

# binder VH3/Vk1 (antibody, V domains shown, member of group m7; also called VH3/Vκ1; VH variant 3 + Vk variant 1) VH: EVMLVESGGGLVKPGGSLRLSCAASGFTFSNYAMSWVRQAPGKGLEWVATISSGGSHTYYLDSVKGRFTISRDNSKDTLYLQMSSLRAEDTALYYCARLFTGYAMDYWGQGTSVTVSS VL: QIVLTQSPAILSLSPGERATMSCTASSSVSSSYLHWYQQKPGKAPKLWIYSTSNLASGVPSRFSGSGSGTFYTLTISSLQAEDFATYYCHQYYRLPPITFGQGTKLEIK ; its kon = 1.03e+06
